Below, each entry is listed with its recorded melting point.

In the examples that follow, each entry is paired with its recorded melting point.
chemicalStructure	melting point
COc1ccc(Nc2nc(N)c(-c3nc4ccccc4[nH]3)s2)cc1	224 to 226 °C
Nc1nc(Nc2ccc(Cl)cc2)sc1-c1nc2ccccc2[nH]1	210 to 212 °C
Nc1nc(Nc2ccc(Br)cc2F)sc1-c1nc2ccccc2[nH]1	200 to 202 °C
Cc1cc(C)c(Nc2nc(N)c(-c3nc4ccccc4[nH]3)s2)c(C)c1	218 to 220 °C
Nc1nc(Nc2ccc([N+](=O)[O-])cc2)sc1-c1nc2ccccc2[nH]1	260 to 262 °C
Nc1nc(Nc2ccccc2[N+](=O)[O-])sc1-c1nc2ccccc2[nH]1	220 to 222 °C

Lab note: next compound to report on.
query: State, in one line, measured melting point of "Nc1nc(Nc2ccccc2)sc1-c1nc2ccccc2[nH]1"
result: 268 to 270 °C

---

Below, each entry is listed with its recorded viability at 5 µM.
- Tested on: A549 Cell line (Lung Cancer Cell line)
- assay: MTT cell proliferation assay, A549 Cell line
- Type: cell-based, human
- statedConditions: Homo sapiens; A549, 5 μM, 72 h, MTT
Write the answer as a number in %, unit excluded.

chemicalStructure	viability at 5 µM / %
COc1ccc(Nc2nc(N)c(-c3nc4cc(C)ccc4[nH]3)s2)cc1	63.8
Cc1cc(C)c(Nc2nc(N)c(-c3nc4ccccc4[nH]3)s2)c(C)c1	61
Cc1ccc(Nc2nc(N)c(-c3nc4cc(C)ccc4[nH]3)s2)cc1	62.1
Nc1nc(Nc2ccc(Br)cc2F)sc1-c1nc2ccccc2[nH]1	71.8

query: State, in one line, measured viability at 5 µM of "Nc1nc(Nc2ccccc2)sc1-c1nc2ccccc2[nH]1"
result: 15.1

query: State, in one line, measured viability at 5 µM of "Nc1nc(Nc2ccc([N+](=O)[O-])cc2)sc1-c1nc2ccccc2[nH]1"
result: 71.8

query: State, in one line, measured viability at 5 µM of "Nc1nc(Nc2ccc(Cl)cc2)sc1-c1nc2ccccc2[nH]1"
result: 65.9

query: State, in one line, measured viability at 5 µM of "Cc1ccc2[nH]c(-c3sc(Nc4ccccc4)nc3N)nc2c1"
result: 61.4

query: State, in one line, measured viability at 5 µM of "Cc1ccc2[nH]c(-c3sc(Nc4ccc(Cl)cc4)nc3N)nc2c1"
result: 58.9

query: State, in one line, measured viability at 5 µM of "Nc1nc(Nc2cccc(C(F)(F)F)c2)sc1-c1nc2ccccc2[nH]1"
result: 68.6

---

Below, each entry is listed with its recorded viability at 5 µM.
- System: MDA-MB-436 Cell line
- assay: MTT cell proliferation assay, MDA-MB-436 Cell line
- Assay type: cell-based
- statedConditions: Homo sapiens; MDA-MB-436, 5 μM, 72 h, MTT
Write the answer as a number in %, unit excluded.

query: Give reported viability at 5 µM for "Cc1ccc(Nc2nc(N)c(-c3nc4ccccc4[nH]3)s2)cc1" (MDA-MB-436 Cell line)
result: 69.3

query: Give reported viability at 5 µM for "COc1ccc(Nc2nc(N)c(-c3nc4ccccc4[nH]3)s2)cc1" (MDA-MB-436 Cell line)
result: 93.5

query: Give reported viability at 5 µM for "COc1ccc(Nc2nc(N)c(-c3nc4c(C)cccc4[nH]3)s2)cc1" (MDA-MB-436 Cell line)
result: 81.7

query: Give reported viability at 5 µM for "COc1ccc(Nc2nc(N)c(-c3nc4cc(C)ccc4[nH]3)s2)cc1" (MDA-MB-436 Cell line)
result: 73.8

query: Give reported viability at 5 µM for "Cc1ccc2[nH]c(-c3sc(Nc4ccc(Cl)cc4)nc3N)nc2c1" (MDA-MB-436 Cell line)
result: 65.9
